Ref: patent US9376376B2

tested on: non-small cell lung cancer A549 cells; assay: In vitro cell inhibition assay, CCK-8 method, A549; assay type: cell-based, human; conditions: CCK-8, 1 μM, 48 h incubation
Quick reference for Proliferation inhibitory effect of the compounds on A549 cells (% of Control) among some compounds

The examples below pair each entry with its known result.
N#Cc1c(Cl)c(Cl)c(Nc2ccc(C(F)(F)F)cc2Cl)c(C#N)c1Cl ... 53.58 % of Control
N#Cc1c(Cl)c(Cl)c(Nc2ccc(C(F)(F)F)cc2)c(C#N)c1Cl ... 31.44 % of Control
N#Cc1c(Cl)c(Cl)c(Nc2c(Cl)cc(C(F)(F)F)cc2Cl)c(C#N)c1Cl ... 78.63 % of Control

Now for another entry.
Give Proliferation inhibitory effect of the compounds on A549 cells (% of Control); test system non-small cell lung cancer A549 cells; compound N#Cc1c(Cl)c(Cl)c(Nc2c(Cl)cc(Cl)cc2Cl)c(C#N)c1Cl
70.04 % of Control
